test system: P. falciparum 3D7 parasites; assay: Metabolomic profiling of compound-treated parasites (LC/MS); type: cell-based
# Metabolite data: 2_3-Diphosphoglyceric acid per record follows
Provide a numeric answer; units are not to be included.

Sample records with Metabolite data: 2_3-Diphosphoglyceric acid:
[
  {
    "INPUT_SMILES": "CCc1nc(N)nc(N)c1-c1ccc(Cl)cc1",
    "RESULT_NUMBER": 0.1448
  },
  {
    "INPUT_SMILES": "CC1(C)N=C(N)N=C(N)N1OCCCOc1cc(Cl)c(Cl)cc1Cl",
    "RESULT_NUMBER": 0.15
  },
  {
    "INPUT_SMILES": "CCN(CC)S(=O)(=O)c1ccc(Cl)c(C(=O)Nc2ccc3nc(C)sc3c2)c1",
    "RESULT_NUMBER": -0.1327
  }
]

**Q:** Let me know recorded Metabolite data: 2_3-Diphosphoglyceric acid for N#Cc1cc(NC(=O)[C@H]2c3ccccc3C(=O)N(CC(F)(F)F)[C@@H]2c2cccnc2)ccc1F , thanks.
**A:** -1.405
